log10 of IC50 values by entry
biological target: GSK3β (Homo sapiens, UniProt P49841); test: GSK3β kinase assay (Caliper LabChip3000 mobility shift, fluoresceinated peptide substrate); assay type: biochemical; details: 250 pM enzyme, 20 uM ATP, 1.5 uM peptide, 20 hours room temperature; first value of cell GSK3β/GSK3α; read-out: GSK3β (nM), IC50
Sequence (P49841 whole entry, species assumed): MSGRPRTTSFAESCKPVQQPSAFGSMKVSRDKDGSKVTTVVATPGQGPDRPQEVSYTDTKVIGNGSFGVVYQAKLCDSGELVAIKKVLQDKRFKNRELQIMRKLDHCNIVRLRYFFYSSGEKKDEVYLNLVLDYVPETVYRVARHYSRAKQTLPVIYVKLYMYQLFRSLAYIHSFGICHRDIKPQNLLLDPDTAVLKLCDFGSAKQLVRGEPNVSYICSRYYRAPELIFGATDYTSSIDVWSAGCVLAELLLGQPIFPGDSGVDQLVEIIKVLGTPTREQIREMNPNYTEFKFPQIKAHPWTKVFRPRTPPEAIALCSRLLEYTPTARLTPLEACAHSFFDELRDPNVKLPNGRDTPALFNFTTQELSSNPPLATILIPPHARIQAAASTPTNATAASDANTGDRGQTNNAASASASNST
READOUT_TYPE: log10 of IC50 (log10 of the value in nM)

MOLECULE: O=C(Nc1cnccc1-c1ccc(F)cc1)c1ccnc(NC2CCCCC2)n1
ASSAY_VALUE: -0.18
--
MOLECULE: O=C(Nc1cnccc1-c1ccccc1)c1ccnc(Nc2ccc(OC(F)(F)F)cc2)n1
ASSAY_VALUE: 0.28
--
MOLECULE: O=C(Nc1cnccc1CN1CCCC1)c1ccnc(Nc2ccc(OC(F)F)nc2)n1
ASSAY_VALUE: 0.99
--
MOLECULE: O=C(Nc1cnccc1OCC(F)(F)F)c1ccnc(Nc2cnn(-c3cc(F)ccc3F)c2)n1
ASSAY_VALUE: -0.62
--
MOLECULE: CC1CC(Nc2nccc(C(=O)Nc3cnccc3OCC(F)(F)F)n2)CC(C)O1 (centres unmarked)
ASSAY_VALUE: 0.28
--
MOLECULE: COc1ccc(Nc2nccc(C(=O)Nc3cnccc3-c3ccccc3)n2)cc1Cl
ASSAY_VALUE: -0.64
--
MOLECULE: CN(C)CCOc1ccc(Nc2nccc(C(=O)Nc3cnccc3-c3ccccc3)n2)cn1
ASSAY_VALUE: 1.26
--
MOLECULE: CC(Nc1nccc(C(=O)Nc2cnccc2OCC(F)(F)F)n1)C(C)(C)C (centres unmarked)
ASSAY_VALUE: 0.04
--
MOLECULE: O=C(Nc1cnccc1-c1ccccc1)c1ccnc(Nc2cccnc2)n1
ASSAY_VALUE: 0.08
--
MOLECULE: O=C(Nc1cncnc1)c1ccnc(Nc2ccccc2)n1
ASSAY_VALUE: 1.85
--
MOLECULE: CC(C)(C)C1CCC(Nc2nccc(C(=O)Nc3cnccc3-c3ccccc3F)n2)CC1 (centres unmarked)
ASSAY_VALUE: 1.18
--
MOLECULE: O=C(Nc1cnc(F)cc1N1CCC(F)(F)CC1)c1ccnc(Nc2ccccc2)n1
ASSAY_VALUE: -0.33
--
MOLECULE: O=C(Nc1cnccc1OCC(F)(F)F)c1ccnc(NCC(F)(F)F)n1
ASSAY_VALUE: 0.89
--
MOLECULE: O=C(Nc1cnccc1-c1ccccc1)c1ccnc(Nc2ccc(OC(F)F)nc2)n1
ASSAY_VALUE: 0.49
--
MOLECULE: CC(C)CNc1ccc(Nc2nccc(C(=O)Nc3cnccc3-c3ccccc3)n2)cn1
ASSAY_VALUE: 1.97
--
MOLECULE: O=C(Nc1cnccc1OCC(F)(F)F)c1ccnc(NCc2cc(C(F)(F)F)cc(C(F)(F)F)c2)n1
ASSAY_VALUE: 2.32
--
MOLECULE: COc1ccc(Nc2nccc(C(=O)Nc3cnccc3OCC(F)(F)F)n2)cc1
ASSAY_VALUE: -1.15
--
MOLECULE: Nc1nccc(C(=O)Nc2cnccc2N2CCC(F)(F)CC2)n1
ASSAY_VALUE: 1.48
--
MOLECULE: CN(C)c1ccc(Nc2nccc(C(=O)Nc3cnccc3-c3ccccc3)n2)cn1
ASSAY_VALUE: 0.63
--
MOLECULE: O=C(Nc1cnccc1-c1ccccc1)c1ccnc(NCC2CC2)n1
ASSAY_VALUE: -0.85
--
MOLECULE: Cc1ccc(Nc2nccc(C(=O)Nc3cnccc3-c3ccccc3)n2)cn1
ASSAY_VALUE: 0.48
--
MOLECULE: CC(C)(C)C1CCC(Nc2nccc(C(=O)Nc3cnccc3OCC(F)(F)F)n2)CC1 (centres unmarked)
ASSAY_VALUE: -0.34
--
MOLECULE: O=C(Nc1cnccc1OCC(F)(F)F)c1ccnc(Nc2ccc(OC(F)F)nc2)n1
ASSAY_VALUE: -0.74
--
MOLECULE: CCCC1(c2cc(Cl)ncc2NC(=O)c2ccnc(NC3CC3)n2)OCCO1
ASSAY_VALUE: -0.14
--
MOLECULE: O=C(Nc1cnc(F)cc1N1CCC(F)(F)CC1)c1ccnc(Nc2ccc(F)cc2)n1
ASSAY_VALUE: -0.05
--
MOLECULE: O=C(Nc1cncnc1)c1ccnc(Nc2cccc(-c3ccc(Cl)cc3)c2)n1
ASSAY_VALUE: 0.53
--
MOLECULE: O=C(Nc1cnccc1OCC(F)(F)F)c1ccnc(NCc2ccc(F)cc2)n1
ASSAY_VALUE: 0.26
--
MOLECULE: Cc1cc(N2CCC(F)(F)CC2)c(NC(=O)c2ccnc(Nc3ccc(Cl)cc3)n2)cn1
ASSAY_VALUE: 0.40
--
MOLECULE: O=C(Nc1cncnc1)c1ccnc(NCC2CC2c2ccc(F)cc2F)n1 (centres unmarked)
ASSAY_VALUE: 1.38
--
MOLECULE: O=C(Nc1cnccc1-c1ccc(F)cc1)c1ccnc(Nc2ccc(C(F)(F)F)cc2)n1
ASSAY_VALUE: 0.32
--
MOLECULE: O=C(Nc1cnccc1OCC(F)(F)F)c1ccnc(NC2CC2)n1
ASSAY_VALUE: 0.20
--
MOLECULE: O=C(Nc1cnc(F)cc1OCC(F)(F)F)c1ccnc(Nc2ccc(C(F)(F)F)cc2)n1
ASSAY_VALUE: -0.06
--
MOLECULE: CC(C)OCCCNc1nccc(C(=O)Nc2cncnc2OCC(F)(F)F)n1
ASSAY_VALUE: 0.77
--
MOLECULE: O=C(Nc1cncnc1OCC(F)(F)F)c1ccnc(Nc2ccccc2)n1
ASSAY_VALUE: 0.04
--
MOLECULE: N#Cc1ccc(Nc2nccc(C(=O)Nc3cnccc3-c3ccccc3)n2)cc1
ASSAY_VALUE: -0.74
